- system under test: chimpanzee GPR105 protein (Pan troglodytes)
- Sequence (A0A2J8P2M1 1-338): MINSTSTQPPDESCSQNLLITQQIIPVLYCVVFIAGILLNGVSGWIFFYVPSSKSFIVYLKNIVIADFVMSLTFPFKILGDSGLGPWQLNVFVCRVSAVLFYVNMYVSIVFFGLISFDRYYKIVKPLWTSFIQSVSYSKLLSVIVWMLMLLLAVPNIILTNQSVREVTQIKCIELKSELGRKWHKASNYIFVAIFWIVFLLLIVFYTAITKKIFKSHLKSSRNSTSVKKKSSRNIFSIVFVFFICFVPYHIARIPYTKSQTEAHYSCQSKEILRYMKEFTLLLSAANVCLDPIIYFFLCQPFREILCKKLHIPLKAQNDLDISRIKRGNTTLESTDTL
- protocol summary: Cell-Binding Assay: FLIPR calcium signaling in HEK/GPR105/Gqi5 cells, inhibition of UDP-glucose agonist
- stated conditions: HEK cells expressing chimpanzee GPR105 and Gqi5; UDP-glucose agonist at EC80; inhibition of Ca2+ signaling by FLIPR
measured parameter: IC50 (µM)

These recorded examples may help you get a feel for the data.
O=C(O)c1cc(-c2ccc(C3CCNCC3)cc2)c2ccc(-c3ccc(C(F)(F)F)cc3)cc2c1
0.0022
O=C(O)c1cc2cc(-c3ccc(C(F)(F)F)cc3)ccc2c(-c2ccc([C@H](O)C(F)(F)F)cc2)c1F
0.0255

[a] O=C(O)c1cc(-c2ccsc2)c2ccc(OCc3c(F)cc(F)cc3F)cc2c1
[b] Cc1cccc(C)c1COc1ccc2c(-c3ccc4c(c3)OCO4)cc(C(=O)O)cc2c1
Exercise: compare a and b ; which one has the greater IC50? Select an item and report its label.
b
(b: 0.0194 µM, a: 0.0105 µM)

###

- system under test: chimpanzee GPR105 protein (Pan troglodytes)
- protocol summary: Cell-Binding Assay: FLIPR calcium signaling in HEK/GPR105/Gqi5 cells, inhibition of UDP-glucose agonist
- stated conditions: HEK cells expressing chimpanzee GPR105 and Gqi5; UDP-glucose agonist at EC80; inhibition of Ca2+ signaling by FLIPR
- Protocol: A stable HEK clonal cell line expressing the chimpanzee GPR105 protein and the chimeric G protein Gqi5 was developed. The chimeric Gqi5 forces the coupling of GPR105 through the Gq (calcium) pathway and allows for monitoring of calcium signaling using a calcium binding fluorescent dye and the FLIPR (fluorometric imaging plate reader, MDS Sciex). […] Quantitation of the % inhibition of Ca^2+ signaling by antagonist was calculated using the maximum fluorescent signal detected. […]
measured parameter: IC50 (nM)

[A] O=C(O)c1cc2cc(-c3ccc(C(F)(F)F)cc3)ccc2c(-c2ccc([C@@H](O)C(F)F)cc2)c1F
[B] O=C(O)c1cc(-c2ccc([C@@H](O)C(F)F)cc2)c2ccc(-c3ccc(F)cc3)cc2c1
Exercise: compare A and B ; which one has the greater IC50? Select an item and report its label.
A

[1] Cc1ccc(Cl)c(COc2ccc3c(-c4ccsc4)cc(C(=O)O)cc3c2)c1F
[2] O=C(O)c1cc(-c2ccc(C3(O)CCNCC3)cc2)c2ccc(-c3ccc(C(F)(F)F)cc3)cc2c1
[3] O=C(O)c1cc(-c2ccsc2)c2ccc(-c3ccc(OC(F)(F)F)cc3)cc2c1
[4] O=C(O)c1cc(-c2ccc(-c3cn4cccnc4n3)cc2)c2ccc(-c3ccc(C(F)(F)F)cc3)cc2c1
Given 4 molecules, produce a descending ranking by IC50. Provide your answer as the labels ordered per the instruction.
1, 3, 2, 4

[1] Cc1cccc(C)c1COc1ccc2c(OCc3ccccc3)cc(C(=O)O)cc2c1
[2] O=C(O)c1cc(-c2ccsc2)c2ccc(OCc3c(F)cccc3Cl)cc2c1
[3] O=C(O)c1cc(-c2ccsc2)c2ccc(OCc3c(Cl)ccc(Cl)c3Cl)cc2c1
Order the entries by their reported IC50, beginning at the minimum. Provide your answer as the labels ordered per the instruction.
3, 2, 1
(3: 7.3 nM, 2: 12.5 nM, 1: 21.2 nM)

[1] Cc1ccc(C(F)(F)F)cc1COc1ccc2c(-c3ccsc3)cc(C(=O)O)cc2c1
[2] O=C(O)c1cc(-c2ccc([C@@H](O)C(F)(F)F)cc2)c2ccc(-c3ccc(C(F)(F)F)cc3)cc2c1
[3] O=C(O)c1cc(-c2ccsc2)c2ccc(OCc3cc(C(F)(F)F)ccc3Cl)cc2c1
[4] O=C(O)c1cc(-c2ccc([C@@H](O)C(F)F)cc2)c2ccc(-c3ccc(C(F)(F)F)cc3)cc2c1
Order the entries by their reported IC50, beginning at the minimum. Provide your answer as the labels ordered per the instruction.
4, 2, 1, 3

###

- system under test: chimpanzee GPR105 protein (Pan troglodytes)
- protocol summary: Cell-Binding Assay: FLIPR calcium signaling in HEK/GPR105/Gqi5 cells, inhibition of UDP-glucose agonist
- stated conditions: HEK cells expressing chimpanzee GPR105 and Gqi5; UDP-glucose agonist at EC80; inhibition of Ca2+ signaling by FLIPR
pIC50: −log10 of the molar value.
measured parameter: pIC50

These recorded examples may help you get a feel for the data.
CS(=O)(=O)c1cc(-c2cc(C(=O)O)cc3cc(-c4ccc(OC(F)(F)F)cc4)ccc23)cs1
7.62
Cc1cc(F)cc(C)c1COc1ccc2c(-c3ccsc3)cc(C(=O)O)cc2c1
7.84
CSc1ccc(-c2ccc3c(-c4ccc([C@@H](O)C(F)F)cc4)cc(C(=O)O)cc3c2)cc1
7.91

[A] O=C(O)c1cc(-c2ccsc2)c2ccc(OCc3c(Cl)cncc3Cl)cc2c1 [drawing 30]
[B] O=C(O)c1cc(-c2ccsc2)c2ccc(OCc3c(Cl)cccc3Cl)cc2c1
[C] O=C(O)c1cc(-c2ccsc2)c2ccc(OCc3c(Br)cccc3Br)cc2c1
Order the entries by their reported pIC50, beginning at the minimum. Provide your answer as the labels ordered per the instruction.
C, A, B

[A] Cc1cccc(C)c1COc1ccc2c(-c3ccc(C=O)cc3)cc(C(=O)O)cc2c1
[B] O=C(O)c1cc(-c2ccc(C(O)C(F)(F)F)cc2)c2ccc(-c3ccc(C(F)(F)F)cc3)cc2c1 (stereo not drawn)
Please let me know which one, A or B , has a lower measured pIC50 value. Select an item and report its label.
A
(A: 7.65, B: 7.89)

[a] O=C(O)c1cc(-c2ccccc2)c2ccc(OCc3c(Cl)ccc(Cl)c3Cl)cc2c1
[b] O=C(O)c1cc(-c2ccsc2)c2ccc(OCc3c(Cl)cncc3Cl)cc2c1 [drawing 14]
[c] O=C(O)c1cc(-c2ccc(-c3nnc[nH]3)cc2)c2ccc(-c3ccc(C(F)(F)F)cc3)cc2c1
Order the entries by their reported pIC50, beginning at the minimum. Provide your answer as the labels ordered per the instruction.
a, c, b

[I] Cc1cccc(C)c1COc1ccc2c(-c3ccsc3)cc(C(=O)O)cc2c1
[II] O=C(O)c1cc(-c2csc(C(O)C(F)F)c2)c2ccc(-c3ccc(C(F)(F)F)cc3)cc2c1 (stereo not drawn)
Exercise: compare I and II ; which one has the greater pIC50? Select an item and report its label.
II

###

- system under test: chimpanzee GPR105 protein (Pan troglodytes)
- protocol summary: Cell-Binding Assay: FLIPR calcium signaling in HEK/GPR105/Gqi5 cells, inhibition of UDP-glucose agonist
- stated conditions: HEK cells expressing chimpanzee GPR105 and Gqi5; UDP-glucose agonist at EC80; inhibition of Ca2+ signaling by FLIPR
pIC50: −log10 of the molar value.
measured parameter: pIC50

Cc1cccc(C)c1COc1ccc2c(-c3ccc(C(=O)O)cc3)cc(C(=O)O)cc2c1
7.96
CC(=O)c1ccc(-c2cc(C(=O)O)cc3cc(OCc4c(C)cccc4C)ccc23)cc1
7.76
C[S+]([O-])c1ccc(-c2cc(C(=O)O)cc3cc(-c4ccc(C(F)(F)F)cc4)ccc23)cc1 (centres unmarked)
7.86
Cc1cccc(C)c1COc1ccc2c(-c3ccc(O)cc3)cc(C(=O)O)cc2c1
7.74
Cc1cccc(C)c1COc1ccc2c(-c3ccc(S(C)(=O)=O)cc3)cc(C(=O)O)cc2c1
7.92
O=C(O)c1cc(-c2ccsc2)c2ccc(OCc3c(Cl)cccc3Br)cc2c1
7.75
CS(=O)(=O)c1cc(-c2cc(C(=O)O)cc3cc(-c4ccc(C(F)(F)F)cc4)ccc23)cs1
7.91
COc1ccccc1COc1cc(C(=O)O)cc2cc(OCc3c(C)cccc3C)ccc12
7.85
Cc1cccc(C)c1COc1ccc2c(-c3ccc(C(C)(C)O)cc3)cc(C(=O)O)cc2c1
7.79
O=C(O)c1cc(-c2ccsc2)c2ccc(OCc3c(F)cccc3F)cc2c1
7.65
Cc1cccc(C)c1COc1ccc2c(-c3ccc(CO)cc3)cc(C(=O)O)cc2c1
7.78

Data provenance is patent US20100298347A1.
